Data credit: patent US20250171460A1

Tested on: primary human endothelial cells expressing luciferase under the control of the KLF2 promoter
Test: KLF2 Induction Cell Based Bioassay (luciferase reporter)
Conditions: Homo sapiens, Endothelial cell, Bioactivity of stereoisomers: S isomer; read-out: Bioactivity Bucket, S
pEC50: −log10 of the molar value.
metricName: pEC50

Fill in: pEC50 of COCCN1C(=O)c2oc3cc(C(=O)NC4CCC4)ccc3c2OC[C@@]1(C)C(=O)NCc1ccccc1OC is ___
5.30 to 6.30

---

System: primary human endothelial cells expressing luciferase under the control of the KLF2 promoter
Experiment: KLF2 Induction Cell Based Bioassay (luciferase reporter)
Settings: Homo sapiens, Endothelial cell, Bioactivity of stereoisomers: R isomer; read-out: Bioactivity Bucket, R
Experimental: In endothelial cell culture media, a stock of the highest working concentration was made at no more than 1% DMSO vehicle. The working stock was then serially diluted 1:2 to make an 11-point concentration response curve. […] 20 μL of the supernatant was then placed in a 384-well plate with optical duplicates. […] The plate read is then calibrated using the control, and read using a Molecular Devices SpectraMax iD5, providing luminescence in relative light units (RLU). […]
metricName: EC50

For the compound shown here, COc1cccc(F)c1CNC(=O)[C@@]1(C)COc2c(oc3ccc(Cl)cc23)C(=O)N1CC(=O)N(C)C (single isomer, unassigned) , give the reported EC50.
51 to 500 nM

Which value of EC50 has been reported for COCCN1C(=O)c2oc3cc(C(=O)NC4CCC4)ccc3c2OC[C@]1(C)C(=O)NCc1ccccc1OC in the records?
≤ 50 nM

I'd like to know its EC50. The compound in question is COCCN1C(=O)c2oc3ccccc3c2OC[C@]1(C)C(=O)NCc1ccccc1OC
501 to 5000 nM

Request the reported EC50 associated with [2H]C([2H])([2H])N(C(=O)CN1C(=O)c2oc3ccc(Cl)cc3c2OC[C@]1(C)C(=O)NCc1c(F)cccc1OC)C([2H])([2H])[2H]
51 to 500 nM

Which EC50 is reported for this compound? COc1cccnc1CNC(=O)[C@@]1(C)COc2c(oc3cc(-c4nc(C#N)co4)ccc23)C(=O)N1CC(=O)N(C)C
≤ 50 nM

# query: EC50 of entry C#CCCN1C(=O)c2oc3ccccc3c2OC[C@]1(C)C(=O)NCc1ccccc1OC
501 to 5000 nM

Entry COCCN1C(=O)c2oc3cc(C(=O)NC4(C)COC4)ccc3c2OC[C@]1(C)C(=O)NCc1c(F)cccc1OC has what EC50?
51 to 500 nM
